We begin with a simple list: items and their reported TGI.
- Tested on: SNB-19 CNS
- method-summary: NCI tumour cell line growth inhibition, 48 h
assay-metric: TGI

- C1=C2/CC[C@H](Sc3ccccc3)[C@H]2C2(CCCCC/1)OCCO2: > 100 µM
- O=c1cc(N2CCN(c3cc(=O)n4ccccc4n3)CC2)oc2ccccc12: > 100 µM
- O=CC1CCCc2ccccc21 (stereo not given): > 100 µM
- CN1CCN(CCCBr)CC1: > 100 µM
- COC(=O)c1c(O)ccc2c1c1c(n2Cc2cccc(C)c2)C(=O)c2ccccc2C1=O: 27.9 µM
- COc1cccc(-n2ncc3c(N/N=C/c4ccncc4)ncnc32)c1: > 25 µM
- Nc1ncnc2c1nnn2C1CCC(CP(=O)(O)O)C1 (stereo not given): > 100 µM
- O=C(/C=C/c1ccc([N+](=O)[O-])cc1)c1ccc2c3c(cccc13)CC2: 17.4 µM
- Cc1nc2c(sc(=S)n2-c2ccccc2)c(=O)[nH]1: > 100 µM
- C[Si](C)(C)c1ccc(-c2sc(-c3ccc([Si](C)(C)C)s3)c3c2C[Si]2(C3)Cc3c(-c4ccc([Si](C)(C)C)s4)sc(-c4ccc([Si](C)(C)C)s4)c3C2)s1: > 100 µM
